Assign Prostate weight to each entry below.
# System: intact male Sprague-Dawley rats
# assay-remarks: Anabolic and androgenic activity in intact male rats, daily oral gavage
# Format: in vivo, rat
# settings: 0.75 mg/day oral

Completed entries (count: 3):
> print(dat)
                               entry.smiles                  target.of.assay    result
1  C[C@](O)(COc1ccc(C#N)cc1)C(=O)Nc1ccc(C#N)c(Cl)c1  intact male Sprague-Dawley rats   65%±20%
2  C[C@](O)(COc1ccc(C#N)cc1)C(=O)Nc1ccc(C#N)c(C(F)(F)F)c1  intact male Sprague-Dawley rats   71%±10%
3  C[C@](O)(COc1ccc(C#N)c(F)c1)C(=O)Nc1ccc(C#N)c(C(F)(F)F)c1  intact male Sprague-Dawley rats  126%±17%

Reported Prostate weight of C[C@](O)(COc1ccc(Cl)c(F)c1)C(=O)Nc1ccc(C#N)c(C(F)(F)F)c1 : 107%±30%

----------
# Tested on: intact male Sprague-Dawley rats
# assay-remarks: Anabolic and androgenic activity in intact male rats, daily oral gavage
# Type: in vivo, rat
# settings: 0.03 mg/day oral
property: Prostate weight

> print(dat)
                                   molecule                  target.of.assay   result
1  C[C@](O)(COc1ccc(C#N)cc1)C(=O)Nc1ccc(C#N)c(C(F)(F)F)c1 [S-XXV]  intact male Sprague-Dawley rats  88%±15%
2  C[C@](O)(COc1ccc(C#N)c(F)c1)C(=O)Nc1ccc(C#N)c(C(F)(F)F)c1 [S-XXIII]  intact male Sprague-Dawley rats   99%±8%
3  C[C@](O)(COc1ccc(Cl)c(F)c1)C(=O)Nc1ccc(C#N)c(C(F)(F)F)c1 [S-II]  intact male Sprague-Dawley rats  98%±15%

Alright, here's another molecule for you.
Lookup result for C[C@](O)(COc1ccc(C#N)cc1)C(=O)Nc1ccc(C#N)c(Cl)c1 [S-XXIV] ; measured Prostate weight: 99%±10%

----------
# Test system: castrated (ORX) male Sprague-Dawley rats
# assay-remarks: Anabolic and androgenic activity in castrated (ORX) male rats, daily oral gavage for fourteen days
# Type: in vivo, rat
# settings: ORX rats; 0.75 mg/day oral
Give measured Seminal vesicle weight for each item. Keep answers brief.

> print(dat)
                               entry.smiles                property    result
1  C[C@](O)(COc1ccc(C#N)cc1)C(=O)Nc1ccc(C#N)c(C(F)(F)F)c1  Seminal vesicle weight   70%±14%
2  C[C@](O)(COc1ccc(C#N)c(F)c1)C(=O)Nc1ccc(C#N)c(C(F)(F)F)c1  Seminal vesicle weight  155%±16%
3  C[C@](O)(COc1ccc(C#N)cc1)C(=O)Nc1ccc(C#N)c(Cl)c1  Seminal vesicle weight    51%±9%

Seminal vesicle weight recorded for this compound, C[C@](O)(COc1ccc(Cl)c(F)c1)C(=O)Nc1ccc(C#N)c(C(F)(F)F)c1 , is 86%±12%

----------
# Tested on: intact male Sprague-Dawley rats
# assay-remarks: Anabolic and androgenic activity in intact male rats, daily oral gavage
# Assay type: in vivo, rat
# settings: 0.3 mg/day oral
property: Prostate weight

Example results:
> print(dat)
                                   molecule                  target.of.assay   result
1  C[C@](O)(COc1ccc(C#N)cc1)C(=O)Nc1ccc(C#N)c(Cl)c1 [S-XXIV]  intact male Sprague-Dawley rats  58%±15%
2  C[C@](O)(COc1ccc(Cl)c(F)c1)C(=O)Nc1ccc(C#N)c(C(F)(F)F)c1 [S-II]  intact male Sprague-Dawley rats   62%±5%
3  C[C@](O)(COc1ccc(C#N)cc1)C(=O)Nc1ccc(C#N)c(C(F)(F)F)c1 [S-XXV]  intact male Sprague-Dawley rats  71%±16%

The value of Prostate weight measured for the molecule C[C@](O)(COc1ccc(C#N)c(F)c1)C(=O)Nc1ccc(C#N)c(C(F)(F)F)c1 [S-XXIII] turned out to be 98%±22%

Values were extracted from patent US9278914B2.
